# EXPERIMENTAL SYSTEM: T1, PSMA Fab
# T1 construct: also called Anti-PSMA Fab; 006 PSMA Fab
# PROTOCOL SUMMARY: clonal phage ELISA; biotinylated PSMA Fab on neutravidin plate, wells first incubated with PSMA antigen as competitor; anti-M13 HRP detection
Where no end group is shown, it is not given here.
phage binding ELISA signal, Anti-PSMA Fab in the presence of PSMA overview
# output: bare number, no unit

stdin: Could you tell me which phage binding ELISA signal, Anti-PSMA Fab in the presence of PSMA is on file for WEARCQPTWMCTGF (cysteine pairing not given here; also: fused to pIII of bacteriophage) [Phage-3467] ?
stdout: 0.0667

stdin: Could you tell me which phage binding ELISA signal, Anti-PSMA Fab in the presence of PSMA is on file for TNPMCVPEWMCYGF [Phage-3468] ?
stdout: 0.0628

Now look at this entry.
stdin: Could you tell me which phage binding ELISA signal, Anti-PSMA Fab in the presence of PSMA is on file for EVLLCKPEWMCTGF (cysteine pairing not given here; also: fused to pIII of bacteriophage) [Phage-3463] ?
stdout: 0.0669
